I'd appreciate it if you could supply Luciferase Score (triplicates) values for the items below.
# System: KCC2 promoter
# assay_comment: KCC2-LUC luciferase primary screen in primary cortical neurons
# Type: cell-based, mouse
# run_parameters: Mechanistic Compounds; rank score; 100 nM, 48 h
Answers are plain numbers.

Example entries and their recorded answers appear below.
N=C1N=CN=C2C([C@@H]3O[C@H](CO)[C@@H](O)[C@H]3O)=CN=C12; 2
NC(=O)c1cn(C2OC(CO)C(O)C2O)c2ncnc(N)c12 (centres unmarked); 6
CC(=O)Nc1ccc(-c2nc3ccccc3s2)cc1; 2
CC(=O)/C(=C\c1cccc([N+](=O)[O-])c1)C(=O)Nc1ccccc1C; 5
CC(O)CCC(=O)c1ccoc1 (centres unmarked); 3
Cc1ccc(NC(=O)c2cccc([N+](=O)[O-])c2O)c(C)c1; 1
CC1(C)C(O)OC(O)C1(C)C (centres unmarked); 6

# query: Luciferase Score (triplicates) | item Cc1cc(-c2nc3ccccc3s2)ccc1N | system: KCC2 promoter
4
